tested on: MET; conditions: concentration: 1 μM, replicates: in singlicate; n = 1;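 further: KINOMEscan kinase panel screen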
Recorded %Inh by entry
Numbers only here, please. The scale is %.

Cc1cccc(Nc2nc(N[C@H]3CCCC[C@H]3N)ncc2C(N)=O)c1.Cl: 0
Cc1ccc(NC(=O)c2ccnc(N3CCCCC3)c2)cc1-c1ccc(C(=O)NCC2CC2)cc1: 0
N#Cc1cnc2cc(-c3cnc(CNCCN4CCOCC4)s3)ccc2c1Nc1ccc(Oc2ccccc2)cc1: 7
COc1cccc(NC(=O)NCCNc2ccnc(Nc3ccc(F)cc3)n2)c1: 0
Cc1cccc(Nc2nc(NCCN)ncc2C(N)=O)c1: 29
c1ccc(Oc2ccc(Nc3ccnc4cc(-c5ccc(CN6CCCCC6)o5)ccc34)cc2)nc1: 11
Fc1cc(Cl)ccc1Nc1ccnc2cc(-c3ccc(CN4CCOCC4)o3)ccc12: 51
O=C(O)C(F)(F)F.O=c1[nH]ccc2nc(N[C@@H]3CCNC3)nc(Nc3cc(Cl)cc(Cl)c3)c12: 0

Dear colleague, I am looking for the recorded %Inh of the following compound: "CCNC(=O)/C=C/c1n[nH]c2cc(Sc3ccccc3C(=O)NC)ccc12"
13

So what's the measured %Inh for this one? "CCOc1nccc(-c2c(-c3ccc(F)cc3)ncn2C2CCNCC2)n1"
0

Report %Inh for "Cn1cc(-c2cnc(N)c3c(-c4ccc5c(c4)CCN5C(=O)Cc4ccccc4)csc23)cn1" please.
79

Need %Inh of NCCC(NC(=O)c1cc(Br)c(-c2ccnc3[nH]ccc23)s1)c1ccccc1.O=C(O)C(F)(F)F.O=C(O)C(F)(F)F (centres unmarked) , thanks.
24

Request the reported %Inh associated with Cl.Cl.NC(CNC(=O)c1cc(Br)c(-c2ccnc3[nH]ccc23)s1)c1ccccc1 (centres unmarked)
22

* * *

system: FLT3-autoinhibited; conditions: concentration: 1 μM, replicates: in singlicate; n = 1
recordedEndpoint: %Inh (%)
Write the answer as a number in %, unit excluded.

The following molecules have reported results that may help.
Cn1cc(-c2cnc(N)c3c(-c4ccc5c(c4)CCN5C(=O)Cc4ccccc4)csc23)cn1 [GSK2593074]: 0
Nc1ncnc2scc(-c3ccc(NC(=O)Cc4cc(F)ccc4F)cc3)c12.O=C(O)C(F)(F)F [SB-731254-M]: 89
O=C(O)C(F)(F)F.O=c1[nH]ccc2nc(N[C@@H]3CCNC3)nc(Nc3cc(Cl)cc(Cl)c3)c12 [GSK2188764]: 67

Now take the following molecule into account.
Item COc1cc(Nc2nccc(N3CCC(NC(=O)Nc4ccc5c(c4)OCO5)C3)n2)cc(OC)c1OC (stereo not shown) [GSK1379766] has what recorded %Inh?
8

* * *

test system: BRSK1; settings: concentration: 1 μM, replicates: in singlicate; n = 1
Listed here: items and their measured %Inh.
Answer format: value, then unit.

Cc1ccc(C)c(NC(=O)Nc2ccc(C)c(-c3ccc(C(=O)Nc4ccncc4)cc3)c2)c1 [GSK1398473]: 0%

For the next question, use this compound.
Could you tell me which %Inh is on file for CC(C)NCC(Cc1ccccc1)NC(=O)c1cc(Br)c(-c2ccnc3[nH]ccc23)s1.Cl.Cl (centres unmarked) [GSK1383281] ?
0%

* * *

tested on: AURKA; settings: concentration: 1 μM, replicates: in singlicate; n = 1
recordedEndpoint: %Inh (%)
Numbers only here, please. The scale is %.

COc1cccc(-c2nc(-c3ccccc3)[nH]c2-c2ccncc2)c1: 0
COc1cc(Nc2nccc(N3CCC(NC(=O)Nc4ccc5c(c4)OCO5)C3)n2)cc(OC)c1OC (centres unmarked): 86
CC(C)(C)c1ccc(C(=O)Nc2cn3cc(-n4ccnc4)ccc3n2)cc1: 0

Would you kindly share the measured %Inh for "Cc1cccc(Nc2nc(NCCN)ncc2C(N)=O)c1" ?
18

# input molecule: "Cc1nn2c(=O)cc(N3CCO[C@H](C)C3)nc2n1Cc1cccc(Cl)c1Cl" ; wanted: its %Inh
35

* * *

test system: PRKX; conditions: concentration: 1 μM, replicates: in singlicate; n = 1
recordedEndpoint: %Inh
Number first, unit second.

Completed entries (count: 4):
CC(C)c1nc(-c2ccc(F)c(NS(=O)(=O)c3c(F)cccc3F)c2)c(-c2ccnc(Nc3ccc(N4CCOCC4)nc3)n2)s1: 23%
COc1cccc2c(-c3ccncc3)c(-c3ccc(F)cc3)nn12: 10%
O=C(Nc1n[nH]c2nc(-c3ccccc3)ccc12)C1CC1: 5%
Cc1ccc(NC(=O)c2ccc(Cl)c(Cl)c2)cc1-c1ccc(C(=O)Nc2ccncc2)cc1: 17%

So what %Inh did "COC(=O)Nc1nc2ccc(Oc3ccc(CC(=O)Nc4cc(C(F)(F)F)ccc4F)cc3)cc2[nH]1" get with PRKX?
2%

Test system PRKX; read-out %Inh; what value for "N#CC1(c2cccc(C(=O)Nc3cccc(Oc4ccc5nc(NC(=O)C6CC6)sc5n4)c3)c2)CC1" ?
0%

Provide value of %Inh for this record tested with PRKX: "CN(C)c1ncnc2nc[nH]c12"
0%

Param readout= %Inh; system= PRKX; entry= "CS(=O)(=O)c1cccc(CNc2nc(Nc3ccc4c(c3)CCC(=O)N4)ncc2C(F)(F)F)c1" ; returns value.
0%

What reported %Inh corresponds to "Cl.N#CCc1ccc(Nc2nccc(Nc3ccc(Oc4ccccc4)cc3)n2)cc1" on PRKX?
10%

* * *

Recorded %Inh for the following compounds
system: EPHA6; conditions: concentration: 1 μM, replicates: in singlicate; n = 1
# output: numeric value plus its unit

Entry "Cc1ccc(C)c(NC(=O)Nc2ccc(C)c(-c3ccc(C(=O)Nc4ccncc4)cc3)c2)c1" , system EPHA6: what %Inh was measured?
16%

Param readout= %Inh; system= EPHA6; entry= "Cc1ccc(NC(=O)c2ccc(Cl)c(Cl)c2)cc1-c1ccc(C(=O)Nc2ccncc2)cc1" ; returns value.
18%

Entry "CC(C)c1nc(-c2ccc(F)c(NS(=O)(=O)c3c(F)cccc3F)c2)c(-c2ccnc(Nc3ccc(N4CCOCC4)nc3)n2)s1" , system EPHA6: what %Inh was measured?
50%

API: value(readout= %Inh, system= EPHA6, query= "O=C(O)C(F)(F)F.O=c1[nH]ccc2nc(N[C@@H]3CCNC3)nc(Nc3cc(Cl)cc(Cl)c3)c12" )
0%

* * *

Form field: %Inh (one value per entry).
system: TXK; details: concentration: 1 μM, replicates: in singlicate; n = 1
Just the number in %, nothing appended.

Some compounds with known %Inh results, for comparison:
COC(=O)Nc1nc2ccc(Oc3ccc(CC(=O)Nc4cc(C(F)(F)F)ccc4F)cc3)cc2[nH]1 [GW680903]: 8
COc1cc(Nc2nccc(N3CCC(NC(=O)Nc4ccc5c(c4)OCO5)C3)n2)cc(OC)c1OC (centres unmarked) [GSK1379766]: 38
CN(c1ccc(NC(=O)N2CCN(CCCN3CCOCC3)CC2)cc1)c1ccnc(Nc2ccc(CS(C)(=O)=O)cc2)n1.Cl [GW830899]: 38
c1ccc(Oc2ccc(Nc3ccnc4cc(-c5ccc(CN6CCCCC6)o5)ccc34)cc2)nc1 [GW567143]: 0
Cl.O=C(Nc1ccc(Oc2ccc3[nH]c(NC(=O)c4ccco4)nc3c2)cc1)Nc1cc(C(F)(F)F)ccc1F [GW683134]: 16
CN(C)c1ncnc2nc[nH]c12 [SKF-31736]: 0

I am curious: what %Inh value has been reported for Nc1ncnc2scc(-c3ccc(NC(=O)Cc4cc(F)ccc4F)cc3)c12.O=C(O)C(F)(F)F [SB-731254-M] ?
8

Consider the compound O=C(Nc1n[nH]c2nc(-c3ccccc3)ccc12)C1CC1 [SB-708999] and give its measured %Inh.
5

Return reported %Inh; argument: CSc1ccc(NC2=C(c3ccc(Cl)cc3)C(=O)NC2=O)cc1 [SB-317658]
23

Record request: %Inh value, item O=C(Nc1n[nH]c2cc(-c3cccs3)ccc12)C1CC1 [SB-731284]
0

* * *

Below: a set of entries, each annotated with reported %Inh.
test system: PRP4; conditions: concentration: 1 μM, replicates: in singlicate; n = 1
Please give a number only; it is taken to be in %.

Below are worked cases with known answers.
O=C(Nc1n[nH]c2cc(-c3cccs3)ccc12)C1CC1: 7
CN(C)c1ncnc2nc[nH]c12: 0
Nc1ncc(-c2ccc3nccc(-c4ccncc4)c3c2)cc1S(=O)(=O)N1CCCCC1: 0
Cn1cc(-c2ccc3c(c2)CCN3C(=O)Cc2cc(F)cc(C(F)(F)F)c2)c2c(N)ncnc21: 16

As a next step, examine the compound that follows.
What value of %Inh has been reported for the following compound? "CN(c1ccc2c(c1)nc(NCc1ccccc1)n2C)c1ccnc(Nc2ccc(CS(C)(=O)=O)cc2)n1.Cl"
22

* * *

Recorded %Inh, one value per entry.
tested on: PIP5K1C; conditions: concentration: 1 μM, replicates: in singlicate; n = 1
Use % as the unit, but write only the number.

Observe how each entry below is paired with its result.
COC(=O)Nc1nc2ccc(Oc3ccc(NC(=O)Nc4cc(C(F)(F)F)ccc4F)cc3)cc2[nH]1.Cl [GW654607]: 30
Cc1cccc(Nc2nc(N[C@H]3CCCC[C@H]3N)ncc2C(N)=O)c1.Cl [GSK986310]: 63

I would be grateful if you could share the reported %Inh for O=C(Nc1n[nH]c2nc(-c3ccccc3)ccc12)C1CC1 [SB-708999] .
84

Given CNc1nccc(-c2ccc3c(N)n[nH]c3c2)n1 [GSK2206003] , state its recorded %Inh.
60

Dear colleague, I am looking for the recorded %Inh of the following compound: "CCNc1nccc(-c2c(-c3ccc(F)cc3)ncn2C2CCN(C)CC2)n1"
0

Which %Inh is listed for Cc1ccc(NC(=O)c2ccnc(N3CCCCC3)c2)cc1-c1ccc(C(=O)NCC2CC2)cc1 [GW775610] ?
5

Quick one: %Inh of Cc1ccc(-c2ccc3occ(-c4ccc(S(C)=O)cc4)c3c2)nn1 (stereo not drawn) ?
42

Return reported %Inh; argument: COc1cc(Nc2nccc(N3CCC(NC(=O)Nc4ccc5c(c4)OCO5)C3)n2)cc(OC)c1OC (stereo not drawn) [GSK1379766]
56

For the compound shown here, COc1ccc(C)c(Nc2ccnc(Nc3ccc(-c4cnc[nH]4)cc3)n2)c1.Cl [GW784041] , give the reported %Inh.
33
